- assay-comment: growth inhibition, single agents and combos, LFS_MB_1R, cell-based, cisplatin or BGB combos, synergistic combos for chromothripsis tumors (AID 1671452);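 note: cells exposed for 96 hours before readout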
- study-conditions: LFS_MB_1R medulloblastoma cells, measured here: combination with BGB IC40, at 0.05 µM, stronger effect = higher value
measure-name: inhibition (%)
Note: unit % is implicit; provide only the numeric part.

Please report the measured inhibition for `Cc1cc(C#N)cc(C)c1Oc1nc(Nc2ccc(C#N)cc2)nc(N)c1Br` -38.9

----------
# reported fold change; entries follow
- assay-comment: viability loss with induced miR-34 in A549 – imaging, A549 dox-inducible miR-34, nuclei and caspase counts, primary screen (AID 1347080)
- study-conditions: A549 miR-34 inducible, Hoechst nuclei count, 48 h; measured here: relative caspase fold change +Dox/-Dox
# answer = number (no unit)

Some compounds with known fold change results, for comparison:
CCN(CC)CCOC(=O)c1ccc(N)cc1Cl ... 1.29
Cc1cc(Nc2nc(NC(C)c3ccc(F)cc3)c(C#N)cc2F)n[nH]1 (configuration not stated) ... 0.511
NO ... 1.06

Supply fold change value. Item: `COc1ccc(CN2CCN(c3ncnc4sccc34)CC2=O)cc1` 1.22

Let me know recorded fold change for `N#CSc1cc(SC#N)c(N)nc1N` , thanks. 0.703

Specify fold change for `O=C(NN=Cc1ccc([N+](=O)[O-])o1)c1ccc(O)cc1` and stop. 0.454

----------
- assay-comment: RCMB18 cell growth, single agent and combined, cisplatin and BGB IC40 combos (AID 1671462);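 note: cells exposed to compound for four days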
- study-conditions: RCMB18 medulloblastoma cells, cisplatin combo, at 5 µM, stronger effect = higher value
Please mark 1.0 if the recorded inhibition is equal to or greater than 90%, and 0.0 if it falls below.

Some solved entries appear below for comparison.
C=C(NC(=O)C(=C)NC(=O)c1csc(C2=NC3c4csc(n4)C4NC(=O)c5csc(n5)C(C(C)(O)C(C)O)NC(=O)C5CSC(=N5)/C(=C/C)NC(=O)C(C(C)O)NC(=O)c5csc(n5)C3(CC2)NC(=O)C(C)NC(=O)C(=C)NC(=O)C(C)NC(=O)C(C(C)CC)NC2C=Cc3c(C(C)O)cc(nc3C2O)C(=O)OC4C)n1)C(N)=O (stereo not drawn) ... 1.0
O=C(O)c1cc2cccc([N+](=O)[O-])c2[nH]1 ... 0.0
O=C(CCCCCCC(=O)Nc1ccc(I)cc1)NO ... 1.0
COc1nc(N)nc2c1ncn2[C@@H]1O[C@H](CO)[C@@H](O)[C@H]1O ... 0.0

Check the entry CCC(C)C(=O)OC1CC(C)C=C2C=CC(C)C(CCC3CC(O)CC(=O)O3)C21 (stereo not drawn) : does inhibition equal or exceed 90%? 0.0

Hi, just wondering whether C=C(C)C1CCC2(C(=O)O)CCC3(C)C(CCC4C5(C)CCC(O)C(C)(C)C5CCC43C)C12 (stereo not drawn) shows inhibition of 90% or higher. 0.0

Tell me whether inhibition is at least 90% here: `Cc1c(Br)cc(NCC(=O)N/N=C/c2cc([N+](=O)[O-])ccc2O)cc1Br` 0.0

----------
The following molecules are listed with their measured period change values.
- assay-comment: compounds altering circadian rhythm period length – cell-based, LOPAC library, luminescence reporter (AID 2774);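 note: values are relative to mean of DMSO wells on each plate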
- study-conditions: circadian reporter cells, at 7 µM, actives lie on both sides
Active and inactive are the calls of the source. No rule for the calls is given here.

Look over these answered cases.
C[C@H](Cc1ccccc1)Nc1ncnc2c1ncn2[C@@H]1O[C@H](CO)[C@H](O)C1O (stereo partly drawn) ... -0.12 h (inactive)
N[C@H](C(=O)O)[C@H](O)C(=O)O ... -0.095 h (inactive)
N#CC(=C(\N)Sc1ccccc1N)/C(C#N)=C(/N)Sc1ccccc1N ... -0.02 h (inactive)

Quote period change reported for `NCCCCCCCCCCN` please. 0 h (inactive)

Item `CC(=O)NCCc1ccc(O)c(O)c1` : provide period change -0.045 h (inactive)

For `NC(N)=NCCSSCCN=C(N)N` , write its period change. 0.065 h (inactive)

Tell me measured period change for `O=C(O)/C(=C/c1c(C(=O)O)[nH]c2cc(Cl)cc(Cl)c12)c1ccccc1` please. 0.21 h (inactive)

----------
- assay-comment: MELAS cybrid and Rieske KO viability enhancers – cell-based, MELAS cybrids, Rieske KO mouse fibroblasts, CellTiter-Glo, primary screen (AID 1508586);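 note: z relative to plate mean and SD of compound and empty wells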
- study-conditions: MELAS cybrid survival, low glucose, CellTiter-Glo 48 h
Calls of active or inactive are those of the source.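 Rule for the calls: active = mean z-score across replicates of 1.96 or higher in either the MELAS or the Rieske mutant cell line; inactive = the rest.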
Respond only with the outcome that fits, drawn from active, inactive

Cc1[nH]c2ccccc2c1C1=C(NCCc2ccc(F)cc2)C(=O)N(C)C1=O ... inactive
Nc1nc2cc(C(=O)N3CCN(C(=O)c4ccco4)CC3)ccc2s1 ... inactive
CCCC(=O)Nc1cccc(NC(=O)c2ccccc2Br)c1 ... inactive

Hi team, can someone confirm the assay call for COC(=O)c1c(NC(=O)C2CCOC2)c2cc(NC(C)CO)cnc2n1CCCc1ccccc1 (stereo not drawn) ? inactive

----------
- assay-comment: viability loss with induced miR-34 in A549 – imaging, A549 dox-inducible miR-34, nuclei and caspase counts, primary screen (AID 1347080)
- study-conditions: A549 miR-34 inducible, Hoechst nuclei count, 48 h; stronger effect = lower value; cell number ratio, induced over uninduced
Assign labels as follows, please: met for fold change below 1; not met for fold change equal to or exceeding 1.

Recorded results for 3 compounds are shown here.
OC1CO[C@H]2C(O)CO[C@H]12 (stereo not given in full) ... met
CCNc1nc(Nc2cc(F)c(C(=O)N3CCOCC3)cc2OC)ncc1C(F)(F)F ... met
CC1(C)[C@@H](O)CC[C@@]2(C)[C@H]1CC[C@]1(C)[C@H]2C(=O)C=C2[C@H]3C[C@@](C)(C(=O)O)CC[C@]3(C)CC[C@]21C ... met

Please check: fold change for `CC(C)[C@@H]1NC(=O)[C@H](Cc2ccccc2)NC(=O)[C@@H](CC(=O)O)NC(=O)CNC(=O)[C@H](CCCN=C(N)N)NC1=O` , strictly under 1 or not? not met

Threshold test, fold change < 1: `CC[C@@H]1Cc2cc(O)ccc2C2=C1c1ccc(O)cc1C[C@H]2CC` not met

----------
- assay-comment: viability loss with induced miR-34 in A549 – imaging, A549 dox-inducible miR-34, nuclei and caspase counts, primary screen (AID 1347080)
- study-conditions: A549 miR-34 inducible, Hoechst nuclei count, 48 h; stronger effect = lower value; cell number ratio, induced over uninduced
Reported fold change values for the following molecules.
Just the number, please, no unit after it.

Field: example entries. Status: answers known.
Nc1nc2cc(C(=O)N3CCN(C(=O)c4ccco4)CC3)ccc2s1 ... 0.879
N#Cc1ccc2[nH]cc(CCCCN3CCN(c4ccc5oc(C(N)=O)cc5c4)CC3)c2c1 ... 0.968
COC(=O)C[C@](O)(CCCC(C)(C)O)C(=O)OC1C(OC)=C[C@]23CCCN2CCc2cc4c(cc2C13)OCO4 (some centres not stated) ... 0.85
Nc1nc(Cl)nc2c1ncn2C1OC(CO)C(O)C1O (configuration not stated) ... 1.26
Cn1c(=O)cc(N2CCCC(N)C2)n(Cc2cc(F)ccc2C#N)c1=O (configuration not stated) ... 0.894

# ---- query molecule ----
Assign fold change to the following record: CC(=O)OCC(=O)[C@@]1(O)CC[C@H]2[C@@H]3CCC4=CC(=O)CC[C@]4(C)C3(F)C(=O)C[C@@]21C (some centres not stated) 0.875

----------
- assay-comment: MELAS cybrid and Rieske KO viability enhancers – cell-based, MELAS cybrids, Rieske KO mouse fibroblasts, CellTiter-Glo, primary screen (AID 1508586);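 note: z relative to plate mean and SD of compound and empty wells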
- study-conditions: Rieske KO mouse fibroblast survival, low glucose, CellTiter-Glo 72 h
Entries and their measured z-score follow.
Give the value as a plain number.

Use these answered entries as a reference point.
O=C1CN(c2ccc(C(F)(F)F)cn2)CCN1Cc1ccc2c(c1)OCO2 ... -0.106
Cn1nc(-c2cccnc2)c2[nH]c(-c3ccc4c(c3)OCCO4)nc21 ... 3.9
Cc1cccc(C)c1OCC(=O)O ... 0.0496

Dear colleague, please send me the reported z-score for CCCC(NC(=O)C(C#N)=Cc1cccc(Br)n1)c1ccccc1 (stereo not drawn) when you can. -1.38

Return the recorded z-score value; entry: `O=C(NN=Cc1ccc(O)c(O)c1)c1cc2ccccc2cc1O` 0.559

Provide z-score value for the following compound: `O=C(C=Cn1cnc(-c2cc(C(F)(F)F)cc(C(F)(F)F)c2)n1)N1CC(F)(F)C1` -7.49

Annotate the compound `FC(F)(F)c1ccc(C=Cc2nc(COc3ccc(CCCCn4ccnn4)cc3)co2)cc1` with its measured z-score. -0.508

Hello, please tell me recorded z-score for this one: Cc1cc2c(F)c(Oc3ncnn4cc(OCC(C)O)c(C)c34)ccc2[nH]1 (stereo not drawn) 0.759

----------
- assay-comment: CRL1545 cell growth, single agent and combined, cisplatin and BGB IC20 combos (AID 1671464);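 note: cells exposed to compound for 96 hours before readout; 0% = vehicle DMSO and 100% = high DMSO killing control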
- study-conditions: CRL1545 osteosarcoma cells, measured here: with BGB IC20 combination, at 0.5 µM, stronger effect = higher value
inhibition values, listed per item
Just the number in %, nothing appended.

Examples with their reported inhibition follow.
NC(=O)c1cccc2[nH]c(-c3ccc(C4CCCN4)cc3F)nc12 (centres undefined) ... -14.3
NC(=O)c1ncn(C2OC(CO)C(O)C2O)c1O (centres undefined) ... 2.45
Cc1ccc(NC(=O)CCCCCC(=O)Nc2ccccc2N)cc1 ... 21.7

Query inhibition for `Cc1cc(C=CC#N)cc(C)c1Nc1ccnc(Nc2ccc(C#N)cc2)n1` -13.1

Measured values drawn from PubChem BioAssay for this set.
